Reference source for all entries: the supplement of paper PMC12494721

Tested on: Escherichia coli IAI1
Experiment: fold change of Putrescine concentration vs plate DMSO controls (fold change (ratio)); higher = more amine produced, active = hit call of the paper (significant change in both replicates, either direction)
Settings: incubation time: 27 h, anaerobic, 37 °C
Where a name gives a salt, the structure may show the parent alone.
Measure: fold change of Putrescine concentration
Lab note: write the figure by itself, no unit.

As a guide, the following entries are already answered.
Q) Provide the documented fold change of Putrescine concentration with Escherichia coli IAI1 as the system for NC(=O)OCC(COC(N)=O)c1ccccc1 [Felbamate] (20 µM)
A) 1

Q) Query the reported fold change of Putrescine concentration for Escherichia coli IAI1; item: C=CCOc1ccccc1OCC(O)CNC(C)C (centres undefined) [Oxprenolol hydrochloride] (20 µM)
A) 1.01

Q) Any idea what fold change of Putrescine concentration came out for CCN1CC(CCN2CCOCC2)C(c2ccccc2)(c2ccccc2)C1=O (centres undefined) [Doxapram hydrochloride] (20 µM) on Escherichia coli IAI1?
A) 0.977

---
Q) Query for Escherichia coli IAI1: what fold change of Putrescine concentration does the record show for O=P(O)(O)C(O)(Cc1cccnc1)P(=O)(O)O [Risedronic acid monohydrate] (20 µM) ?
A) 1.2

====

Test system: Escherichia coli IAI1
Assay: growth (OD595) fold change vs plate DMSO controls (fold change (ratio)); higher = more growth
Conditions: incubation time: 27 h, anaerobic, 37 °C
Structures can show the parent of a compound that is named as a salt.
Measure: growth
Field format: numeric only.

Example entries and their recorded answers appear below.
Q) Under Escherichia coli IAI1: growth value of Nc1nc(N)nc(-c2cc(Cl)ccc2Cl)n1 [Irsogladine maleate] (20 µM) ?
A) 1.02

Q) What reported growth corresponds to CCCCC(=O)O[C@H]1CC[C@H]2[C@@H]3CCc4cc(O)ccc4[C@H]3CC[C@]12C [Estradiol Valerate] (20 µM) on Escherichia coli IAI1?
A) 0.995

Q) Provide the documented growth with Escherichia coli IAI1 as the system for COc1cc2nc(N3CCN(C(=O)C4COc5ccccc5O4)CC3)nc(N)c2cc1OC (configuration not stated) [Doxazosin mesylate] (20 µM)
A) 0.974

New cases:
Q) Entry Cc1ccsc1C(=CCCN1CCC[C@@H](C(=O)O)C1)c1sccc1C [Tiagabine hydrochloride] (20 µM) , system Escherichia coli IAI1: what growth was measured?
A) 0.984

Q) Notebook entry, Escherichia coli IAI1 assay: growth of O=C1NCC2(CCN(CCc3ccccc3)CC2)O1 [Fenspiride hydrochloride] (20 µM) = ?
A) 0.982

====

A collection of compounds and their measured fold change of Tryptamine concentration
Test system: Clostridium sporogenes DSM 1664
Test: fold change of Tryptamine concentration vs plate DMSO controls (fold change (ratio)); higher = more amine produced, active = hit call of the paper (significant change in both replicates, either direction)
Conditions: incubation time: 27 h, anaerobic, 37 °C
Counter-ions that a name gives are not always drawn.
Answer with a number only.

Q) Reported fold change of Tryptamine concentration for Clostridium sporogenes DSM 1664, given CN1C(C(=O)Nc2ccccn2)=C(O)c2sccc2S1(=O)=O [Tenoxicam] (20 µM) ?
A) 1.01

Q) Provide value of fold change of Tryptamine concentration for this record tested with Clostridium sporogenes DSM 1664: CCOc1ccc(NC(N)=O)cc1 [(4-Ethoxyphenyl)urea] (50 µM)
A) 0.979

Q) Value wanted: fold change of Tryptamine concentration (Clostridium sporogenes DSM 1664) of entry CCn1cc(C(=O)O)c(=O)c2cnc(N3CCNCC3)nc21 [Pipemidic acid] (20 µM)
A) 1.01

Q) Item: CN(C)c1nc(N(C)C)nc(N(C)C)n1 [Altretamine] (20 µM) Test system: Clostridium sporogenes DSM 1664 Read-out: fold change of Tryptamine concentration Value: ?
A) 0.977

Q) Short answer please: fold change of Tryptamine concentration, Clostridium sporogenes DSM 1664, entry Cc1ccc(/C(=C\CN2CCCC2)c2ccccn2)cc1 [Triprolidine hydrochloride] (20 µM)
A) 1.02

Q) API: value(readout= fold change of Tryptamine concentration, system= Clostridium sporogenes DSM 1664, query= COc1c2occc2c(OC)c2c(=O)cc(C)oc12 [Khellin] (20 µM) )
A) 1

====

Catalogue of fold change of Putrescine concentration values
Test system: Escherichia coli IAI1
Assay: fold change of Putrescine concentration vs plate DMSO controls (fold change (ratio)); higher = more amine produced, active = hit call of the paper (significant change in both replicates, either direction)
Conditions: incubation time: 27 h, anaerobic, 37 °C
Structures can show the parent of a compound that is named as a salt.
Format: numeric value only, no unit, no commentary.

Recorded results for 10 molecules are shown here.
Q) GET /values?readout=fold change of Putrescine concentration&item= CCN(CC)CCOC(=O)c1ccc(N)cc1 [Procaine hydrochloride] (20 µM)
A) 1.16

Q) Fill in: fold change of Putrescine concentration of CCN[C@@H]1C[C@H](N)[C@@H](O[C@H]2OC(CN)=CC[C@H]2N)[C@H](O)[C@H]1O[C@H]1OC[C@](C)(O)[C@H](NC)[C@H]1O [Netilmicin sulfate] (20 µM) is ___
A) 0.947

Q) Quick one: fold change of Putrescine concentration of O=C(c1ccc(OCCN2CCCCC2)cc1)c1c(-c2ccc(O)cc2)sc2cc(O)ccc12 [Raloxifene hydrochloride] (20 µM) ?
A) 0.976

Q) What measured fold change of Putrescine concentration goes with N=C(N)NC(=O)c1nc(Cl)c(N)nc1N [Amiloride hydrochloride dihydrate] (20 µM) ?
A) 1.03

Q) Entry under review: CNC(=C[N+](=O)[O-])NCCSCc1ccc(CN(C)C)o1 [Ranitidine hydrochloride] (20 µM) . Reported fold change of Putrescine concentration?
A) 0.996

Q) Quick check: fold change of Putrescine concentration of CC(=O)Nc1ccccc1 [Acetanilide] (20 µM) ?
A) 1.04

Q) Fill in the blank: the reported fold change of Putrescine concentration of CCOC(=O)O[C@]1(C(=O)OCCl)CC[C@H]2[C@@H]3CCC4=CC(=O)C=C[C@]4(C)[C@H]3[C@@H](O)C[C@@]21C [Loteprednol etabonate] (20 µM) is ____.
A) 1.25

Q) Would you kindly share the measured fold change of Putrescine concentration for CN(C)CCC=C1c2ccccc2C=Cc2ccccc21 [Cyclobenzaprine hydrochloride] (20 µM) ?
A) 0.987

Q) Please report the recorded fold change of Putrescine concentration for CCC[C@@H]1C[C@@H](C(=O)N[C@@H]([C@H]2O[C@H](SC)[C@H](O)[C@@H](O)[C@H]2O)[C@@H](C)O)N(C)C1 [Lincomycin hydrochloride] (20 µM) .
A) 0.531

Q) Which fold change of Putrescine concentration is reported for this molecule? CCC(NC(C)C)C(O)c1ccc(O)c2[nH]c(=O)ccc12 (stereo not given) [Procaterol hydrochloride] (20 µM)
A) 0.978

Next:
Q) Consider the molecule shown here: CN1CCc2c(c3ccccc3n2Cc2ccccc2)C1 [Mebhydroline 1,5-naphtalenedisulfonate] (20 µM) What is its recorded fold change of Putrescine concentration?
A) 0.987

Q) Name the recorded fold change of Putrescine concentration for Cc1cccc(C)c1NC(=O)C1CCCCN1C (stereo not given) [Mepivacaine hydrochloride] (20 µM) .
A) 1

Q) So what does the record say about fold change of Putrescine concentration for CO/N=C(\C(=O)N[C@@H]1C(=O)N2C(C(=O)O)=C(COC(C)=O)CS[C@H]12)c1csc(N)n1 [Cefotaxime sodium salt] (20 µM) ?
A) 0.143

Q) Could you share which fold change of Putrescine concentration value was measured for COc1ccc(CC(C)NCC(O)c2ccc(O)c(NC=O)c2)cc1 (stereo not given) [Formoterol fumarate] (20 µM) ?
A) 1.03

Q) What value of measured fold change of Putrescine concentration is listed for O=C1CCc2cc(OCCCCc3nnnn3C3CCCCC3)ccc2N1 [Cilostazol] (20 µM) ?
A) 1.01

Q) Fill in the blank: the reported fold change of Putrescine concentration of Nc1cc(C(Cl)=C(Cl)Cl)c(S(N)(=O)=O)cc1S(N)(=O)=O [Clorsulon] (20 µM) is ____.
A) 1.02

====

Test system: Ruminococcus gnavus DSM 108212
Test: fold change of Tryptamine concentration vs plate DMSO controls (fold change (ratio)); higher = more amine produced, active = hit call of the paper (significant change in both replicates, either direction);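 for the amine columns active = adjusted P below 0.05 in both replicates with a change the same way and a mean fold change under 0.8 or over 1.25; inactive = the rest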
Conditions: incubation time: 27 h, anaerobic, 37 °C
Counter-ions that a name gives are not always drawn.
Classes to choose from: true for active, false for inactive

A selection of reference data follows.
Q) Record lookup: outcome of this test for Cc1oncc1C(=O)Nc1ccc(C(F)(F)F)cc1 [Leflunomide] (20 µM) ?
A) false

Q) Lab log entry: CC(CN(C)C)CN1c2ccccc2CCc2ccccc21 (stereo not given) [Trimipramine maleate salt] (20 µM) — outcome as called in the assay?
A) false

Q) # fetch the recorded call for CCCN(CCC)CCc1cccc2c1CC(=O)N2 [Ropinirole hydrochloride] (20 µM) here
A) false

Q) Look up the recorded call for CO[C@@H]1[C@@H](O[C@@H]2O[C@H](C)[C@@H](O[C@H]3C[C@@](C)(O)[C@@H](OC(=O)CC(C)C)[C@H](C)O3)[C@H](N(C)C)[C@H]2O)[C@@H](CC=O)C[C@@H](C)[C@@H](O)/C=C/C=C/C[C@@H](C)OC(=O)C[C@H]1OC(C)=O [Josamycin] (20 µM) in this test.
A) true

New cases:
Q) How did this test come out for CN(C)c1nc(N(C)C)nc(N(C)C)n1 [Altretamine] (20 µM) ?
A) false
